System: HBV
Test: Anti-viral assay in HepG2.2.15 cells: anti-HBV activity, HBV DNA in culture medium by qPCR
Type: cell-based
Settings: HepG2.2.15 cells, 6 days treatment, HBV DNA by qPCR; read-out: EC50
property-name: log10(EC50) (log10 of the value in nM)

compound: COC(=O)C1=C(CN2CCN3C(=S)N(CC(C)(C)C(=O)O)CC3C2)NC(c2nccs2)=NC1c1ccc(F)cc1Cl (single isomer, unassigned) [Compound 4B]
endpoint-value: 0.28

compound: CCOC(=O)C1=C(CN2CCN3C(=S)N(C)C[C@@H]3[C@H]2C(=O)O)NC(c2nccs2)=N[C@H]1c1cccc(F)c1C (single isomer, unassigned) [Compound 35A]
endpoint-value: 1.68

compound: CCOC(=O)C1=C(CN2CCN3C(=S)N(CC4(C(=O)O)CC4)CC3C2)NC(c2nccs2)=N[C@H]1c1cccc(F)c1C (single isomer, unassigned) [Compound 9B]
endpoint-value: -0.15

compound: CCOC(=O)C1=C(CN2CCN3C(=S)N(C[C@@H](C)C(=O)O)C[C@@H]3C2)NC(c2ncoc2C)=NC1c1cccc(F)c1C (single isomer, unassigned) [Compound 32B]
endpoint-value: 1.44

compound: CCOC(=O)C1=C(CN2CCN3C(=S)N([C@H]4CC[C@@H](C(=O)O)C4)CC3C2)NC(c2nccs2)=N[C@H]1c1cccc(F)c1C (single isomer, unassigned) [Compound 24C]
endpoint-value: 0.15

compound: CCOC(=O)C1=C(CN2CCN3C(=S)N(CC(C)(C)C(=O)O)CC3C2)NC(c2nccs2)=N[C@H]1c1cccc(F)c1C (single isomer, unassigned) [Compound 1A]
endpoint-value: 0.80

---

Tested on: HBV
Experiment: Anti-viral assay in HepG2.2.15 cells: anti-HBV activity, HBV DNA in culture medium by qPCR
Type: cell-based
Conditions: Hepatitis B virus, HepG2.2.15, 144 h, HepG2.2.15 cells, 6 days treatment, HBV DNA by qPCR; read-out: EC50
Recorded EC50 split into classes lower segment (below 3 nM), middle segment (3 nM to below 40 nM), upper segment (40 nM or more)

molecule: CCOC(=O)C1=C(CN2CCN3C(=S)N(CCC(C)(C)C(=O)O)CC3C2)NC(c2nccs2)=N[C@H]1c1cccc(F)c1C (stereo partly drawn)
tested-system: HBV
class-assignment: middle segment
//
molecule: CCOC(=O)C1=C(CN2CCN3C(=S)N(CC(C)(C)C(=O)O)CC[C@@H]3C2)NC(c2nccs2)=N[C@H]1c1cccc(F)c1C
tested-system: HBV
class-assignment: middle segment
//
molecule: COC(=O)C1=C(CN2CCN3C(=S)N(CC(C)(C)C(=O)O)CC3C2)NC(c2nccs2)=NC1c1cccc(F)c1C (single isomer, unassigned) [Compound 10B]
tested-system: HBV
class-assignment: lower segment
//
molecule: CCOC(=O)C1=C(CN2CCN3C(=S)N(CC(C)(C)C(=O)O)C[C@@H]3C2)NC(c2nccs2)=N[C@H]1c1ccc(C)cc1F (single isomer, unassigned) [Compound 25A]
tested-system: HBV
class-assignment: upper segment
//
molecule: CCOC(=O)C1=C(CN2CCN3C(=CC#N)N(CC(C)(C)C(=O)O)CC3C2)NC(c2nccs2)=N[C@H]1c1cccc(F)c1C (stereo partly drawn)
tested-system: HBV
class-assignment: upper segment
//
molecule: CCOC(=O)C1=C(CN2CCN3C(=S)N(CC(C)(C)C(=O)O)CC[C@H]3C2)NC(c2nccs2)=N[C@H]1c1cccc(F)c1C
tested-system: HBV
class-assignment: upper segment
//
molecule: CCOC(=O)C1=C(CN2CCN3C(=S)N(CC4(C(=O)O)CCC4)CC3C2)NC(c2nccs2)=N[C@H]1c1cccc(F)c1C (single isomer, unassigned) [Compound 29B]
tested-system: HBV
class-assignment: lower segment
//
molecule: CCOC(=O)C1=C(CN2CCN3C(=S)N(C)C[C@@H]3[C@H]2C(=O)O)NC(c2nccs2)=N[C@H]1c1cccc(F)c1Cl (single isomer, unassigned) [Compound 19B]
tested-system: HBV
class-assignment: lower segment
//
molecule: CCOC(=O)C1=C(CN2CCN3C(=S)N(CC4(C(=O)O)CC4)CC3C2)NC(c2nccs2)=NC1c1cccc(F)c1Cl (stereo not drawn)
tested-system: HBV
class-assignment: lower segment
//
molecule: CCOC(=O)C1=C(CN2CCN3C(=S)N(CC(C)(C)C(=O)O)C[C@@H]3C2)NC(c2ncc(F)cc2F)=N[C@H]1c1cccc(F)c1C (single isomer, unassigned) [Compound 22A]
tested-system: HBV
class-assignment: middle segment
//
molecule: CCOC(=O)C1=C(CN2CCN3C(=S)N(C[C@@H](C)C(=O)O)C[C@@H]3C2)NC(c2ncoc2C)=NC1c1cccc(F)c1C (single isomer, unassigned) [Compound 32A]
tested-system: HBV
class-assignment: middle segment

---

Assay: Cytotoxicity determination in HepG2.2.15 cells (CCK-8 assay)
Format: cell-based
Conditions: human, 6 days treatment, CCK-8, highest concentration 100 uM
// assign 1 if CC50 at 6 days falls strictly below 20 µM, else 0 (ties count as 0)

compound: CCOC(=O)C1=C(CN2CCN3C(=S)N(CC4(C(=O)O)CCC4)CC3C2)NC(c2nccs2)=N[C@H]1c1cccc(F)c1C (single isomer, unassigned) [Compound 29B]
class-assignment: 1

compound: CCOC(=O)C1=C(CN2CCN3C(=S)N(C(C)(C)CC(=O)O)CC3C2)NC(c2nccs2)=N[C@H]1c1cccc(F)c1C (single isomer, unassigned) [Compound 30A]
class-assignment: 1

compound: CCOC(=O)C1=C(CN2CCN3C(=S)N(CC(C)(C)C(=O)O)CC3C2)NC(c2nccs2)=NC1c1ccc(F)c(F)c1Cl (centres unmarked) [Compound 14]
class-assignment: 1

compound: COC(=O)C1=C(CN2CCN3C(=S)N(CC(C)(C)C(=O)O)C[C@@H]3C2)NC(c2ncoc2C)=N[C@H]1c1ccc(F)cc1Cl (single isomer, unassigned) [Compound 34A]
class-assignment: 0

compound: CCOC(=O)C1=C(CN2CCN3C(=S)N(CC(C)C(=O)O)C[C@@H]3C2)NC(c2nccs2)=N[C@H]1c1cccc(F)c1C (single isomer, unassigned) [Compound 27A]
class-assignment: 0

compound: CCOC(=O)C1=C(CN2CCN3C(=S)N(C)C[C@@H]3[C@H]2C(=O)O)NC(c2nccs2)=N[C@H]1c1cccc(F)c1C (single isomer, unassigned) [Compound 35A]
class-assignment: 0

compound: CCOC(=O)C1=C(CN2CCN3C(=S)N([C@H]4CC[C@@H](C(=O)O)C4)CC3C2)NC(c2nccs2)=N[C@H]1c1cccc(F)c1C (single isomer, unassigned) [Compound 24C]
class-assignment: 1

compound: CCOC(=O)C1=C(CN2CCN3C(=S)N(C[C@@H](C)C(=O)O)C[C@@H]3C2)NC(c2ncoc2C)=NC1c1cccc(F)c1C (single isomer, unassigned) [Compound 32A]
class-assignment: 0

compound: CCOC(=O)C1=C(CN2CCN3C(=S)N([C@@H]4CC[C@H](C(=O)O)C4)CC3C2)NC(c2nccs2)=N[C@H]1c1cccc(F)c1C (single isomer, unassigned) [Compound 24A]
class-assignment: 1

compound: CCOC(=O)C1=C(CN2CCN3C(=S)N(CC(C)(C)C(=O)O)C[C@@H]3C2)NC(c2nccs2)=N[C@H]1c1ccc(F)c(F)c1C (single isomer, unassigned) [Compound 15B]
class-assignment: 0

compound: CCOC(=O)C1=C(CN2CCN3C(=S)N(CC(C)(C)C(=O)O)C[C@@H]3C2)NC(c2ncc(F)cc2F)=N[C@H]1c1cccc(F)c1C (single isomer, unassigned) [Compound 22A]
class-assignment: 1

---

Assay: Pharmacokinetic and tissue distribution study via intravenous and oral administration in male C57BL/6 mice
Assay type: in vivo
Conditions: male, C57BL/6, mouse; mice plasma, IV, nominal 2 mg/kg; read-out: IV Cl
Recorded clearance values for a group of molecules are listed next.
property-name: clearance

molecule: CCOC(=O)C1=C(CN2CCN3C(=S)N(CC(C)(C)C(=O)O)CC3C2)NC(c2nccs2)=NC1c1cccc(F)c1Cl (single isomer, unassigned)
endpoint-value: 20.2 mL/min/kg

molecule: CCOC(=O)C1=C(CN2CCN3C(=O)N(CC(C)(C)C(=O)O)C[C@@H]3C2)NC(c2nccs2)=N[C@H]1c1cccc(F)c1C [Reference 2, reference compound]
endpoint-value: 49.1 mL/min/kg

molecule: CCOC(=O)C1=C(CN2CCN3C(=S)N(CC(C)(C)C(=O)O)CC3C2)NC(c2nccs2)=N[C@H]1c1cccc(F)c1C (single isomer, unassigned)
endpoint-value: 16.6 mL/min/kg

---

Quick reference for EC50 among some compounds
System: HBV
Test: Anti-viral assay in HepG2.2.15 cells: anti-HBV activity, HBV DNA in culture medium by qPCR
Format: cell-based
Conditions: Hepatitis B virus, HepG2.2.15, 144 h, HepG2.2.15 cells, 6 days treatment, HBV DNA by qPCR; read-out: EC50

compound: CCOC(=O)C1=C(CN2CCN3C(=S)N(CC4(C(=O)O)CC4)C[C@@H]3C2)NC(c2nccs2)=N[C@H]1c1cccc(F)c1Cl (single isomer, unassigned) [Compound 18B]
EC50, nM: 1.5
//
compound: CCOC(=O)C1=C(CN2CCN3C(=S)N(C(C)(C)CC(=O)O)CC3C2)NC(c2nccs2)=N[C@H]1c1cccc(F)c1C (single isomer, unassigned) [Compound 30A]
EC50, nM: 5
//
compound: CCOC(=O)C1=C(CN2CCN3C(=S)N(CC(C)(C)C(=O)O)C[C@@H]3C2)NC(c2nccs2)=N[C@H]1c1ccc(F)c(F)c1C (single isomer, unassigned) [Compound 15B]
EC50, nM: 300
